Target: MBD3sc (human, UniProt O95983 1-249+Q86YP4:137-178, internal_change)
Sequence (O95983 other isoform, or with tags, fused parts or gaps): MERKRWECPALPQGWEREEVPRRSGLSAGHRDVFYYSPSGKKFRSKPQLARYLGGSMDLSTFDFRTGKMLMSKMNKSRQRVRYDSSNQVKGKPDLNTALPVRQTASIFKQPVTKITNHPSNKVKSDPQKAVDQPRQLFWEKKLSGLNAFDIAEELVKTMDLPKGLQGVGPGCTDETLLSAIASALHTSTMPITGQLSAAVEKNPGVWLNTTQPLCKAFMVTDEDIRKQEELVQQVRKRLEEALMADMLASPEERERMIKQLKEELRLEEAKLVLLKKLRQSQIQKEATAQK
Experiment: fluorescence anisotropy; FA: 50 mM Hepes pH 7.5, 100 mM NaCl, 1 mM MgCl2, 10 nM DNA, temperature not stated; SPR: 50 mM Hepes pH 7.5, 150 mM NaCl, 1 mM MgCl2, 1 mM TCEP, 0.05% Tween-20; NMR: 10 mM NaPO4 pH 6.5, 150 mM NaCl, 1 mM DTT, 10% 2H2O, 25 C
Conditions: protein: recombinant; tags: N-terminal thioredoxin-His6-TEV site (removal stated only for NMR); label: 5' 6-FAM on strand 1; blunt
Below: a set of entries, each annotated with reported Kd.
Numeric only. Scale: µM

INSERT INTO measurements (binder, measuredproperty, unitname, readoutvalue) VALUES
  ('17 bp CpG-free FAM (dsDNA) DNA 1: CTGGCCCCAGGGCCCTC DNA 2: GAGGGCCCTGGGGCCAG', 'Kd', 'µM', 14.2),
  ('17 bp mCpG FAM (dsDNA, 5-methylcytosine at C8 of strand 1 and C9 of strand 2 (symmetric)) DNA 1: CTGCCGCCGAGCGCCTC DNA 2: GAGGCGCTCGGCGGCAG', 'Kd', 'µM', 5.9);

Let's switch to this binder now.
Item under review: 17 bp CpG FAM (unmethylated) (dsDNA) DNA 1: CTGCCGCCGAGCGCCTC DNA 2: GAGGCGCTCGGCGGCAG . Reported Kd?
8.1
